# Test system: DeltatarO mutant
# Assay procedure: S. aureus survival, RN4220 and DeltatarO strains – OD600, teichoic acid synthesis inhibitors, primary screen (AID 463173)
# Condition: S. aureus RN4220 wild type/DeltatarO growth, OD600, 18 h, screened at 18.75 µg/mL (by protocol)
Among all 52,000 compounds or so, about 4,300 (8.3%) were called active. No stated cut-off is given here; in the data, active means survival mostly below about 52% (no sharp cut-off); inactive means mostly above about 56%. The sample holds actives, similar compounds and a random draw of the others, so the mix is not that of the screen.
Possible outcomes: YES (active), NO (inactive)

| Smiles repr | Study system | Group |
| --- | --- | --- |
| Cc1cc(NC(=O)c2cccs2)cc(-c2nc3cc(Cl)ccc3o2)c1O | DeltatarO mutant | NO |
| Cc1cc(C)c2oc(-c3ccc(C)c(NC(=O)/C=C/c4ccco4)c3)nc2c1 | DeltatarO mutant | YES |
| O=C(Nc1ccc(O)c(-c2nc3ccccc3o2)c1)c1cccs1 | DeltatarO mutant | NO |
| Cc1ccc2oc(-c3cc(NC(=O)c4cccs4)cc(C)c3O)nc2c1 | DeltatarO mutant | NO |
| Cc1ccc(-c2nc3cc(C(C)C)ccc3o2)cc1NC(=O)c1cccs1 | DeltatarO mutant | NO |

* * *

# Tested on: DeltatarO mutant
# Assay procedure: S. aureus survival, RN4220 and DeltatarO strains – OD600, teichoic acid synthesis inhibitors, primary screen (AID 463173)
# Condition: S. aureus RN4220 wild type/DeltatarO growth, OD600, 18 h, screened at 18.75 µg/mL (by protocol)
Hit rate of the full screen: of about 52,000 compounds, about 4,300 (8.3%) were called active. Cut-off read from the data, not from the text of the source: active = survival mostly below about 52% (no sharp cut-off); inactive = mostly above about 56%. The list comes from a sample in which actives are over-represented; it also holds close analogues and randomly drawn compounds.
Labels: yes (1) = active, no (0) = inactive

| Compound | Group |
| --- | --- |
| Cc1cc(NC(=O)c2ccccc2Cl)ccc1NC(=O)c1ccccc1 | no (0) |
| CCOc1ccccc1NC(=O)CCNS(=O)(=O)c1cccc2nonc12 | yes (1) |
| O=S(=O)(Nc1cccc(-c2ccc(N3CCOCC3)nn2)c1)c1ccccc1C(F)(F)F | no (0) |
| Cc1cc(NC(=O)CSc2nc3c([nH]c4ccccc43)c(=O)n2-c2ccccc2F)no1 | no (0) |
| CCc1ccccc1NC(=O)CCS(=O)(=O)c1cccc2nonc12 | no (0) |
| COc1ccc(C)cc1NC(=O)CCNS(=O)(=O)c1cccc2nonc12 | yes (1) |
| CCOC(=O)c1ccc(OC(=O)c2cn(-c3cccc(OC)c3)c(=O)c3ccccc23)cc1 | no (0) |
| Cc1ccc(NC(=O)c2nc[nH]c2C(=O)N2CCCCC2)c(C(=O)c2ccccc2)c1 | no (0) |
| Cc1ccc2c(c1)C(c1ccccc1)N(C(=O)COc1ccc(Cl)cc1Cl)CC(=O)N2 (stereo not given) | yes (1) |
| Cc1ccc2c(c1)C(c1ccc(F)cc1)N(C(=O)COc1ccc(Cl)cc1Cl)CC(=O)N2 (stereo not given) | yes (1) |
| COc1ccc(Cl)cc1NC(=O)CCS(=O)(=O)c1cccc2nonc12 | no (0) |
| COc1ccc(C(=O)N2CC(=O)Nc3ccc(C)cc3C2c2ccccc2)cc1OC (stereo not given) | no (0) |
| CCOc1ccccc1NC(=O)C1CCN(S(=O)(=O)c2cccc3nonc23)CC1 | no (0) |
| Cc1ccccc1NS(=O)(=O)c1ccc2[nH]c3c(c2c1)CCCCC3 | no (0) |
| COc1ccc(-c2nnc(SCC(=O)Nc3cccc(Cl)c3C)nc2-c2ccc(OC)cc2)cc1 | no (0) |
| CC(C)(C)c1ccc(C(=O)Nc2nc3nc(-c4ccccc4)cc(=O)n3[nH]2)cc1 | no (0) |
| O=C(CN(Cc1ccccc1)C(=O)Cn1nnc(-c2ccc(F)cc2)n1)NC1CCCC1 | no (0) |
| CSc1ccc(CCNC(=O)C2CCCN(S(=O)(=O)N(C)c3ccc(F)cc3)C2)cc1 (stereo not given) | no (0) |
| COc1cccc(CNC(=O)CSC2=Nc3ccccc3N=C(c3ccc(F)cc3)C2)c1 | no (0) |
| O=C(CCS(=O)(=O)c1cccc2nonc12)Nc1cccc(F)c1 | no (0) |

* * *

# Tested on: DeltatarO mutant
# Assay procedure: S. aureus survival, RN4220 and DeltatarO strains – OD600, teichoic acid synthesis inhibitors, primary screen (AID 463173)
# Condition: S. aureus RN4220 wild type/DeltatarO growth, OD600, 18 h, active compounds read low, screened at 18.75 µg/mL (by protocol)
Out of some 52,000 compounds screened, about 4,300 (8.3%) were called active. What follows is part of a selection rich in actives, with near analogues and random picks from the rest.
Please use the following survival ranges when assigning a class: low range (below 70%), mid range (70% to below 80%), high range (80% or more)

| Compound | Group |
| --- | --- |
| COc1ccc(-c2cc(C(F)(F)F)nc(NCc3ccccc3)n2)cc1OC | low range |
| CC(C)CCNC(=O)c1c2c(nc3ccccc13)C(=O)N(C1CCCCC1)C2 | high range |
| COc1ccc(-c2cc(C(F)(F)F)nc(SCC(=O)NCc3ccc(F)cc3)n2)cc1 | mid range |
| Cc1ccc(-n2nc(C)c3nc(CCC(=O)Nc4ccc(F)cc4)c(=O)n(C)c32)cc1 | mid range |
| Cc1cccc(C(=O)N2CCc3cc(CNC(=O)CCc4ccccc4)ccc32)c1 | low range |
| COc1ccccc1CNC(=O)CN1C(=O)CCCc2ccccc21 | high range |
| N#Cc1nc(/C=C/c2ccc(F)cc2)oc1N1CCN(c2ccccc2)CC1 | mid range |
| COc1ccccc1NC(=O)c1c(NCc2ccc(OC)c(OC)c2OC)sc2c1CCCC2 | high range |
| COc1ccc(CNC(=O)c2c3c(nc4ccccc24)C(=O)N(C2CCCCC2)C3)cc1 | high range |
| COc1ccccc1CCNC(=O)C(C)Sc1nc(-c2ccccc2)cc(C(F)(F)F)n1 (stereo unspecified) | low range |
| CCc1nn(CC(=O)NCCc2ccc(Cl)cc2)c(=O)c2cc3c(OC)cccc3n12 | mid range |
| CCCCN(C)C(=O)C1CCC(Cn2c(=O)[nH]c3ccsc3c2=O)CC1 (stereo unspecified) | low range |
| CC(=O)Nc1ccc(/C=C/c2noc(-c3ccccc3O)n2)cc1 | mid range |
| Cc1ccc(-n2nc(C)c3nc(CCC(=O)Nc4cccc(F)c4)c(=O)n(C)c32)cc1 | low range |
| CC(=O)Nc1ccc(/C=C/c2nc(-c3ccccc3O)n(-c3ccccc3)n2)cc1 | high range |
| CCOc1ccc(Nc2nc3c(S(=O)(=O)c4ccc(CC)cc4)nnn3c3ccc(Cl)cc23)cc1 | high range |
| CCCCCNC(=O)C1CCC(Cn2c(=O)c3sccc3n(CC)c2=O)CC1 (stereo unspecified) | low range |
| Cc1ccc(S(=O)(=O)N2CCCc3cc(NC(=O)c4cccc(Cl)c4)ccc32)cc1 | high range |
| CN(C)c1ccc(/C=N/NC(=O)c2ccccc2)cc1 | high range |
| COc1ccc(-c2cc(C(F)(F)F)nc(SCC(=O)NCC(C)C)n2)cc1OC | high range |
| CCCCN(CC)CCCNC(=O)c1cn(C)c(=O)c2c1c1ccccc1n2C | high range |
| O=C(Nc1cccc(Cl)c1)c1cc(S(=O)(=O)N2CCCc3ccccc32)ccc1F | high range |
| CN(C)c1ccc(/C=C/c2noc(-c3ccccc3O)n2)cc1 | high range |
| COc1cccc(CNC(=O)c2c3c(nc4ccccc24)C(=O)N(C2CCCCC2)C3)c1 | low range |
| CCc1cccc(NC(=O)Cn2nc3c4cc(F)ccc4n(Cc4cccc(C)c4)cc-3c2=O)c1 | high range |
| CCOc1ccc(CCNC(=O)CN2C(=O)c3cccnc3Oc3ccc(C)cc32)cc1OCC | low range |
| CCc1cccc(C)c1NC(=O)CN1C(=O)c2c(c3ccccc3n2C)C1c1ccc(OC)cc1 (stereo unspecified) | high range |
| COc1ccc(-c2cc(C(F)(F)F)nc(NCCc3ccccc3)n2)cc1OC | low range |
| Cc1cn2c(=O)c(S(=O)(=O)NCc3ccc(F)cc3)c(C)nc2s1 | high range |
| COc1cccc(-c2nc(S(=O)(=O)c3ccccc3)c(NCc3ccccc3)o2)c1 | low range |
| O=C(Nc1nnc(S(=O)(=O)N2CCc3ccccc32)s1)c1cccc(Cl)c1 | low range |
| Oc1ccccc1-c1nc(/C=C/c2ccc(F)cc2)nn1-c1ccccc1 | low range |
| CCOc1ccccc1N(C)C(=O)c1c2c(nc3ccccc13)C(=O)N(C1CCCCC1)C2 | high range |
| CN(C)c1ccc(/C=C/c2nc(-c3ccccc3O)n(-c3ccccc3)n2)cc1 | low range |
| O=C(O)CCCc1nc2ccccc2s1 | mid range |

* * *

# Tested on: DeltatarO mutant
# Assay procedure: S. aureus survival, RN4220 and DeltatarO strains – OD600, teichoic acid synthesis inhibitors, primary screen (AID 463173)
# Condition: S. aureus RN4220 wild type/DeltatarO growth, OD600, 18 h, screened at 18.75 µg/mL (by protocol)
Out of some 52,000 compounds screened, about 4,300 (8.3%) were called active. No stated cut-off is given here; in the data, active means survival mostly below about 52% (no sharp cut-off); inactive means mostly above about 56%. The entries come from a sample that favours actives as a whole.
Possible outcomes: 1 = active, -1 = inactive

| Compound | Study system | Group |
| --- | --- | --- |
| COc1ccc(CCNc2nc3ccccc3c3nc(-c4cccc(C)c4)nn23)cc1OC | DeltatarO mutant | 1 |
| CC1CCN(S(=O)(=O)c2ccc3c(c2)N(CC(=O)NCCCN2CCCC(C)C2)C(=O)CS3)CC1 (stereo not given) | DeltatarO mutant | -1 |
| Cc1cc(C)c2c(c1)c(C)cc1nnc(SCC(=O)c3ccc(F)cc3)n12 | DeltatarO mutant | -1 |
| Cc1cccc(CCNC(=O)C2CCC(CNS(=O)(=O)c3ccccc3)CC2)c1 (stereo not given) | DeltatarO mutant | -1 |
| COc1cc2nc(NCCc3cccc(C)c3)n3nc(-c4ccccc4)nc3c2cc1OC | DeltatarO mutant | -1 |
